Provenance of the data: patent US9296723B2

# System under test: NAMPT (Homo sapiens)
# Assay remarks: Time-Resolved Fluorescence Resonance Energy Transfer (TR-FRET) Binding Assay of NAMPT
# Details: 6.8 nM NAMPT, 200 nM probe, equilibrated 3 hours, no substrates
Observed property: log10 IC50 (log10 of the value in nM)
Scale: decimal log of IC50, IC50 in nM.

Query :: Recorded log10 IC50 for O=C(Nc1ccc(C2CN(C(=O)c3nccs3)C2)cc1)N1CC(c2cccnc2)C1 [Example 228] , please?
Result :: 1.29

Query :: Which log10 IC50 is reported for this compound? O=C(Nc1ccc(C2CCN(C(=O)[C@@H]3CCCO3)C2)cc1)N1CC(c2cccnc2)C1 (some centres unmarked) [Example 66]
Result :: 1.93

Query :: // query log10 IC50 value for entry CCC(CC)CN1CCC(c2ccc(NC(=O)N3CC(c4cccnc4)C3)cc2)CC1 [Example 237]
Result :: 2.76

Query :: Need log10 IC50 of O=C(CC(F)(F)F)N1CC[C@@H](Oc2ccc(NC(=O)N3CC(c4cccnc4)C3)cc2)C1 [Example 84] , thanks.
Result :: 1.77

Query :: Find the recorded log10 IC50 belonging to O=C(Nc1ccc(C2CN(CC3CCCO3)C2)cc1)N1CC(c2cccnc2)C1 (centres unmarked) [Example 250] and report it.
Result :: 2.94

Query :: Fill blank: measured log10 IC50 of the compound CC(C)C(C)C(=O)N1CCC(c2ccc(NC(=O)N3CC(c4cccnc4)C3)cc2)C1 (centres unmarked) [Example 296] is ____.
Result :: 1.42

Query :: Item under review: CC[C@H](C)C(=O)N1CC[C@H](Oc2ccc(NC(=O)N3CC(c4cccnc4)C3)cc2)C1 [Example 98] . Reported log10 IC50?
Result :: 2.79

Query :: Dear colleague, I am looking for the recorded log10 IC50 of the following compound: CC(C)(C)C(=O)N1CC[C@@H](Oc2ccc(NC(=O)N3CC(c4cccnc4)C3)cc2)C1 [Example 322]
Result :: 1.54

Query :: For the compound shown here, CC(C)(O)C(=O)N1CC[C@H](Oc2ccc(NC(=O)N3CC(c4cccnc4)C3)cc2)C1 [Example 94] , give the reported log10 IC50.
Result :: 2.69

Query :: Reported log10 IC50 for CC(C)C(C)C(=O)N1CCC(c2ccc(NC(=O)N3CC(c4cccnc4)C3)cc2)CC1 (centres unmarked) [Example 197] : what is it?
Result :: 1.25

Query :: So what does the record say about log10 IC50 for CC(=O)C(=O)N1CCC(c2ccc(NC(=O)N3CC(c4cccnc4)C3)cc2)C1 (centres unmarked) [Example 291] ?
Result :: 1.41

Query :: Any idea what log10 IC50 was measured for O=C(Nc1ccc(C2CN(C(=O)[C@H]3CCCO3)C2)cc1)N1CC(c2cccnc2)C1 [Example 103] ?
Result :: 2.47

Query :: Requested field: log10 IC50. Item: COCCOCC(=O)N1CC(Oc2ccc(NC(=O)N3CC(c4cccnc4)C3)cc2)C1 [Example 118]
Result :: 1.56

Query :: Which log10 IC50 reading was recorded for the compound O=C(Nc1ccc(OC2CN(C(=O)C3CCCC3)C2)cc1)N1CC(c2cccnc2)C1 [Example 142] ?
Result :: 1.39

----------
# System under test: NAMPT (Homo sapiens, UniProt P43490)
# Sequence (P43490 whole entry): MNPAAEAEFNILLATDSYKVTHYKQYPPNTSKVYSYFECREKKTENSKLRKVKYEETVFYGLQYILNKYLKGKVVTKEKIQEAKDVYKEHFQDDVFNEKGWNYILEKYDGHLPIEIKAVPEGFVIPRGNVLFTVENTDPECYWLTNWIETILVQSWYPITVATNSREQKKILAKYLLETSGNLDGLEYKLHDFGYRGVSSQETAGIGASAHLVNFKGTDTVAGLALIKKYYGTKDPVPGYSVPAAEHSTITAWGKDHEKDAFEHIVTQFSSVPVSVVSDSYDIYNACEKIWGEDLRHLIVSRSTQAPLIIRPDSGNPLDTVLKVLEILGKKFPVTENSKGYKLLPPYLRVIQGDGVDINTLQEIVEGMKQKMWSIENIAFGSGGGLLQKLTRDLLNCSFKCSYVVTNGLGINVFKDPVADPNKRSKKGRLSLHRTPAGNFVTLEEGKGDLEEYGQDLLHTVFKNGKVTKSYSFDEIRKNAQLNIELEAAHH
# Assay remarks: TR-FRET Binding Assay of NAMPT with PRPP
# Details: 2 nM NAMPT, 2 nM probe, 200 µM PRPP and 2.5 mM ATP, equilibrated 16 hours
Observed property: IC50 (nM)
Report only the number, with the unit nM understood.

Query :: What does the data say about its IC50? Entry: CC(C)(C)C(=O)N1CC(c2ccc(NC(=O)N3CC(c4cccnc4)C3)cc2)C1
Result :: 0.26

Query :: What IC50 value was documented for this molecule, Cn1cccc1C(=O)N1CCC(c2ccc(NC(=O)N3CC(c4cccnc4)C3)cc2)CC1 ?
Result :: 0.291

Query :: Which IC50 reading was recorded for the molecule CC(C)(C)CC(=O)N1CCC(c2ccc(NC(=O)N3CC(c4cccnc4)C3)cc2)C1 (stereo not shown) ?
Result :: 0.204

Query :: Record request: IC50 value, item Cn1cccc1C(=O)N1CC[C@@H](Oc2ccc(NC(=O)N3CC(c4cccnc4)C3)cc2)C1
Result :: 0.362

Query :: I would be grateful if you could share the reported IC50 for CCOCCC(=O)N1CCC(c2ccc(NC(=O)N3CC(c4cccnc4)C3)cc2)CC1 .
Result :: 0.503

Query :: For COCC(=O)N1CCC(c2ccc(NC(=O)N3CC(c4cccnc4)C3)cc2)C1 (stereo not shown) , what is its reported IC50?
Result :: 0.259

Query :: Which IC50 reading was recorded for the molecule O=C(Nc1ccc(C2CCN(C(=O)C3CCCC3)CC2)cc1)N1CC(c2cccnc2)C1 ?
Result :: 0.284

Query :: Recorded IC50 of Cc1ccsc1C(=O)N1CC[C@@H](Oc2ccc(NC(=O)N3CC(c4cccnc4)C3)cc2)C1 , please.
Result :: 0.297

Query :: Reported IC50, molecule O=C(Nc1ccc(C2CCN(C(=O)c3ccsc3)CC2)cc1)N1CC(c2cccnc2)C1 : ____
Result :: 0.228

Query :: Which IC50 is reported for this molecule? CN1CCN(CC(=O)N2CCC(c3ccc(NC(=O)N4CC(c5cccnc5)C4)cc3)C2)CC1 (stereo not shown)
Result :: 0.241

Query :: Could you share which IC50 value was measured for CCC(CC)CN1CCC(c2ccc(NC(=O)N3CC(c4cccnc4)C3)cc2)CC1 ?
Result :: 0.257

Query :: Field request: IC50 | item: O=C(Nc1ccc(O[C@@H]2CCN(C(=O)[C@@H]3CCCO3)C2)cc1)N1CC(c2cccnc2)C1
Result :: 0.226

Query :: Please give the measured IC50 for this molecule: O=C(Nc1ccc(C2CCN(C(=O)C3CC3)C2)cc1)N1CC(c2cccnc2)C1 (stereo not shown)
Result :: 0.663

Query :: Recorded IC50 of CN1CCN(CC(=O)N2CC(Oc3ccc(NC(=O)N4CC(c5cccnc5)C4)cc3)C2)CC1 , please.
Result :: 0.219

Query :: Please look up its IC50: CCC(=O)N1CC[C@@H](Oc2ccc(NC(=O)N3CC(c4cccnc4)C3)cc2)C1
Result :: 0.426

Query :: Item CC(C)(O)C(=O)N1CCC(Oc2ccc(NC(=O)N3CC(c4cccnc4)C3)cc2)CC1 has what recorded IC50?
Result :: 0.344
